Test system: Nakaseomyces glabratus
Assay: Antifungal activity against Candida glabrata IFRC 339 after 24 to 168 hrs by broth microdilution assay
Format: functional
# MIC listing for each entry below

COMPOUND	TARGET ENTITY	MIC
OC(CSc1nnc(-c2ccc(F)cc2)[nH]1)(Cn1cncn1)c1ccc(F)cc1F (centres undefined)	Nakaseomyces glabratus	4 µg/mL
OC(CSc1nnc(-c2ccc(Cl)cc2)[nH]1)(Cn1cncn1)c1ccc(Cl)cc1Cl (centres undefined)	Nakaseomyces glabratus	128 µg/mL
COc1ccc(-c2nnc(SCC(O)(Cn3cncn3)c3ccc(Cl)cc3Cl)[nH]2)cc1 (centres undefined)	Nakaseomyces glabratus	128 µg/mL
OC(Cn1cncn1)(Cn1cncn1)c1ccc(F)cc1F	Nakaseomyces glabratus	64 µg/mL
OC(CSc1nnc(-c2ccncc2)[nH]1)(Cn1cncn1)c1ccc(F)cc1F (centres undefined)	Nakaseomyces glabratus	128 µg/mL
Cc1ccc(-c2nnc(SCC(O)(Cn3cncn3)c3ccc(Cl)cc3Cl)[nH]2)cc1 (centres undefined)	Nakaseomyces glabratus	128 µg/mL
OC(CSc1nnc(-c2ccc(F)cc2)[nH]1)(Cn1cncn1)c1ccc(Cl)cc1Cl (centres undefined)	Nakaseomyces glabratus	128 µg/mL
COc1ccc(-c2nnc(SCC(O)(Cn3cncn3)c3ccc(F)cc3F)[nH]2)cc1 (centres undefined)	Nakaseomyces glabratus	4 µg/mL
OC(CSc1nnc(-c2ccc(Cl)cc2)[nH]1)(Cn1cncn1)c1ccc(F)cc1F (centres undefined)	Nakaseomyces glabratus	128 µg/mL
OC(CSc1nnc(-c2ccc(Cl)cc2Cl)[nH]1)(Cn1cncn1)c1ccc(F)cc1F (centres undefined)	Nakaseomyces glabratus	0.25 µg/mL
OC(CSc1nnc(-c2ccncc2)[nH]1)(Cn1cncn1)c1ccc(Cl)cc1Cl (centres undefined)	Nakaseomyces glabratus	128 µg/mL
OC(CSc1nnc(-c2cccc(Br)c2)[nH]1)(Cn1cncn1)c1ccc(F)cc1F (centres undefined)	Nakaseomyces glabratus	128 µg/mL
OC(CSc1nnc(-c2ccc(Cl)cc2Cl)[nH]1)(Cn1cncn1)c1ccc(Cl)cc1Cl (centres undefined)	Nakaseomyces glabratus	0.25 µg/mL
OC(CSc1nnc(-c2cccc(Br)c2)[nH]1)(Cn1cncn1)c1ccc(Cl)cc1Cl (centres undefined)	Nakaseomyces glabratus	128 µg/mL
Oc1ccc(-c2nnc(SCC(O)(Cn3cncn3)c3ccc(Cl)cc3Cl)[nH]2)cc1 (centres undefined)	Nakaseomyces glabratus	128 µg/mL
Oc1ccc(-c2nnc(SCC(O)(Cn3cncn3)c3ccc(F)cc3F)[nH]2)cc1 (centres undefined)	Nakaseomyces glabratus	128 µg/mL
OC(CSc1nnc(-c2ccccc2)[nH]1)(Cn1cncn1)c1ccc(F)cc1F (centres undefined)	Nakaseomyces glabratus	128 µg/mL
Cc1ccc(-c2nnc(SCC(O)(Cn3cncn3)c3ccc(F)cc3F)[nH]2)cc1 (centres undefined)	Nakaseomyces glabratus	128 µg/mL
OC(CSc1nnc(-c2ccccc2)[nH]1)(Cn1cncn1)c1ccc(Cl)cc1Cl (centres undefined)	Nakaseomyces glabratus	128 µg/mL

====

Tested on: Cryptococcus neoformans
Experiment: Antifungal activity against Cryptococcus neoformans IFRC 192 after 24 to 168 hrs by broth microdilution assay
Format: functional

MOLECULE	MIC
OC(CSc1nnc(-c2ccccc2)[nH]1)(Cn1cncn1)c1ccc(F)cc1F (centres undefined)	> 128 µg/mL
OC(CSc1nnc(-c2ccncc2)[nH]1)(Cn1cncn1)c1ccc(Cl)cc1Cl (centres undefined)	> 128 µg/mL
OC(CSc1nnc(-c2ccc(F)cc2)[nH]1)(Cn1cncn1)c1ccc(F)cc1F (centres undefined)	> 128 µg/mL
Oc1ccc(-c2nnc(SCC(O)(Cn3cncn3)c3ccc(Cl)cc3Cl)[nH]2)cc1 (centres undefined)	128 µg/mL
COc1ccc(-c2nnc(SCC(O)(Cn3cncn3)c3ccc(Cl)cc3Cl)[nH]2)cc1 (centres undefined)	> 128 µg/mL
Oc1ccc(-c2nnc(SCC(O)(Cn3cncn3)c3ccc(F)cc3F)[nH]2)cc1 (centres undefined)	> 128 µg/mL
OC(CSc1nnc(-c2cccc(Br)c2)[nH]1)(Cn1cncn1)c1ccc(Cl)cc1Cl (centres undefined)	4 µg/mL
OC(CSc1nnc(-c2cccc(Br)c2)[nH]1)(Cn1cncn1)c1ccc(F)cc1F (centres undefined)	> 128 µg/mL
Cc1ccc(-c2nnc(SCC(O)(Cn3cncn3)c3ccc(Cl)cc3Cl)[nH]2)cc1 (centres undefined)	128 µg/mL
OC(CSc1nnc(-c2ccc(Cl)cc2)[nH]1)(Cn1cncn1)c1ccc(Cl)cc1Cl (centres undefined)	> 128 µg/mL
Cc1ccc(-c2nnc(SCC(O)(Cn3cncn3)c3ccc(F)cc3F)[nH]2)cc1 (centres undefined)	> 128 µg/mL
OC(Cn1cncn1)(Cn1cncn1)c1ccc(F)cc1F	4 µg/mL
COc1ccc(-c2nnc(SCC(O)(Cn3cncn3)c3ccc(F)cc3F)[nH]2)cc1 (centres undefined)	> 128 µg/mL
OC(CSc1nnc(-c2ccc(Cl)cc2Cl)[nH]1)(Cn1cncn1)c1ccc(Cl)cc1Cl (centres undefined)	32 µg/mL
OC(CSc1nnc(-c2ccc(Cl)cc2)[nH]1)(Cn1cncn1)c1ccc(F)cc1F (centres undefined)	> 128 µg/mL
OC(CSc1nnc(-c2ccc(F)cc2)[nH]1)(Cn1cncn1)c1ccc(Cl)cc1Cl (centres undefined)	> 128 µg/mL
OC(CSc1nnc(-c2ccncc2)[nH]1)(Cn1cncn1)c1ccc(F)cc1F (centres undefined)	> 128 µg/mL
OC(CSc1nnc(-c2ccc(Cl)cc2Cl)[nH]1)(Cn1cncn1)c1ccc(F)cc1F (centres undefined)	64 µg/mL
OC(CSc1nnc(-c2ccccc2)[nH]1)(Cn1cncn1)c1ccc(Cl)cc1Cl (centres undefined)	> 128 µg/mL

The reported measurements were obtained from ChEMBL document CHEMBL3400134.
